Assay: chemical genetic growth profiling, strain panel (AID 1159580);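 further: tested at 20 µM; growth read once vehicle control cultures reached saturation at 30 °C; 1 = growth at the plate median or of vehicle wells; lower values mean less growth of the strain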
Details: S. cerevisiae deletion strains, growth OD, locus YHR142W, strain chs7, hits give low values
Among all 5,500 compounds or so, about 2,000 (36%) were called active. Another 18% or so got no clear call; they are omitted. The list shows a part of the results.
Assay endpoint: normalized growth
// no unit, no text: just the number

Known normalized growth results, listed for orientation:
>  <Compound>
O=c1cc(-c2ccc(O)c(O)c2)oc2ccccc12

>  <normalized growth>
0.962

$$$$
>  <Compound>
CCCN1C[C@H](CSC)C[C@@H]2c3cccc4[nH]cc(c34)C[C@H]21

>  <normalized growth>
1.02

$$$$
>  <Compound>
CC(=O)O[C@H]1C[C@@H](O)C(C)(C)C2C[C@@H](OC(C)=O)[C@]3(C)C(CC[C@@]4(C)[C@H](c5ccoc5)OC(=O)C5OC543)[C@]21C (some centres undefined)

>  <normalized growth>
0.999

$$$$

// query For C=C1C(N)CC2CC1C2(C)C (centres undefined) , what is its reported normalized growth?
// result 1.01

// query normalized growth lookup needed for "COc1ccc(-c2cc(=O)c3ccccc3o2)cc1" , thanks.
// result 0.584

// query Can you share its normalized growth? I mean this compound: CC1(C)O[C@@H]2CC3C4CCC5=CC(=O)C=C[C@]5(C)[C@@]4(F)[C@@H](O)C[C@]3(C)[C@]2(C(=O)CO)O1 (some centres undefined)
// result 1.02

// query Please report the recorded normalized growth for C=C1C2CC[C@@]3(C)[C@H](c4ccoc4)OC(=O)C[C@]13O[C@H]1CC(=O)C(C)(C)[C@H](C(O)C(=O)OC)[C@@]21C (some centres undefined) .
// result 1.01

// query Which normalized growth is listed for "O=C1CN2Cc3c(ccc(Cl)c3Cl)N=C2N1" ?
// result 1.04

// query If you can, please state the reported normalized growth value of CC(=O)O[C@@H]1CC2C(C)(C)C(=O)CC[C@]2(C)C2CC[C@@]3(C)[C@H](c4ccoc4)OC(=O)C4OC43[C@@]21C (some centres undefined) .
// result 0.96

// query Form field: reported normalized growth of "C[N+]1(CCCCC[N+]2(C)CCCC2)CCCC1"
// result 0.997

// query // returns reported normalized growth for input COc1cc([C@@H]2c3cc4c(cc3C(O[C@@H]3O[C@@H]5CO[C@@H](c6cccs6)OC5[C@H](O)[C@H]3O)C3COC(=O)[C@@H]32)OCO4)cc(OC)c1O (some centres undefined)
// result 0.981

// query What measured normalized growth goes with "COc1cccc(-c2cc(=O)c3ccc(OC)cc3o2)c1" ?
// result 0.793

// query Bench note: what normalized growth did "O=C1CCc2cc(OCCCCc3nnnn3C3CCCCC3)ccc2N1" show?
// result 1

// query # get_value(readout='normalized growth', item= CCCCOc1cc(CC2CNC(=O)N2)ccc1OC (centres undefined) )
// result 0.914

// query Quick one: normalized growth of CC(=O)O[C@@H]1CC2C(C)(C)CCC(=O)[C@]2(C)C2CC[C@@]3(C)[C@H](c4ccoc4)OC(=O)C4OC43[C@@]21C (some centres undefined) ?
// result 0.991

// query Requested read-out: normalized growth. Entry: "CC(C)(Oc1ccc(Cl)cc1)C(=O)O"
// result 1.04

// query Entry CC(=O)O[C@H]1C[C@@]2(C)[C@H](c3ccoc3)OC(=O)[C@H]3O[C@]32[C@@]2(C)C1[C@]1(C)C(C[C@H]2OC(C)=O)C(C)(C)[C@H](OC(C)=O)C[C@@H]1OC(C)=O (some centres undefined) has what normalized growth?
// result 1

// query Name the recorded normalized growth for "COc1ccc(-c2cc(=O)c3ccccc3o2)cc1OC" .
// result 0.683

// query Give the measured normalized growth of "O=C(/C=C/c1ccccc1)c1ccc(O)cc1" .
// result 0.113
